Source: the Kinase Knowledgebase extract (Sharma et al. 2016)

# EXPERIMENTAL_TARGET: MAPK14 (UniProt Q16539)
# Sequence (Q16539 whole entry, looked up): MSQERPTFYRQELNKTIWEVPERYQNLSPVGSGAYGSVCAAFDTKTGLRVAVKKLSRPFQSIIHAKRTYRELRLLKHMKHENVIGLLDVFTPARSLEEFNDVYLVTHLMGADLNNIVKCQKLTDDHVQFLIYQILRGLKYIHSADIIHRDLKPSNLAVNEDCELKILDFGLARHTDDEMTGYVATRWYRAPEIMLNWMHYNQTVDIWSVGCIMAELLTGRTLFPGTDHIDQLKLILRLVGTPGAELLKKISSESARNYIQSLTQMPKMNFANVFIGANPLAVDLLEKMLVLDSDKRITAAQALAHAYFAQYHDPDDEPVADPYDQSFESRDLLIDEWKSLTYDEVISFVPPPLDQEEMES
# ASSAY_NAME: p38 alpha Inhibition
# RUN_PARAMETERS: concentration not given here
# Lookup of reported inhibition keyed by entry
Report only the number, with the unit % understood.

Sample records with inhibition:
MOLECULE: OCCc1ccc(Nc2nc(-c3ccccc3)nc3ccccc23)cc1
EXPERIMENTAL_TARGET: MAPK14 (UniProt Q16539)
RESULT_NUMBER: 34
//
MOLECULE: c1ccc(-c2nc(NCCc3ccccn3)c3ccccc3n2)cc1
EXPERIMENTAL_TARGET: MAPK14 (UniProt Q16539)
RESULT_NUMBER: 16
//
MOLECULE: Clc1cccc(-c2nc(NCc3ccccc3)c3ccccc3n2)c1
EXPERIMENTAL_TARGET: MAPK14 (UniProt Q16539)
RESULT_NUMBER: 37
//
MOLECULE: c1ccc(-c2nc(Nc3ccc4[nH]ccc4c3)c3ccccc3n2)cc1
EXPERIMENTAL_TARGET: MAPK14 (UniProt Q16539)
RESULT_NUMBER: 70
//
MOLECULE: COc1ccccc1Nc1nc(-c2ccccc2)nc2ccccc12
EXPERIMENTAL_TARGET: MAPK14 (UniProt Q16539)
RESULT_NUMBER: 37

Note: attention shifts to another entry.
Determine from records and report inhibition for `COc1cccc(CNc2ccc3nc(-c4ccccc4F)nc(Nc4ccncc4)c3c2)c1` 96

---

# Lookup of reported inhibition keyed by entry
# EXPERIMENTAL_TARGET: MAPK14 (UniProt Q16539)
# ASSAY_NAME: p38 alpha Inhibition
# RUN_PARAMETERS: concentration not given here
Express the reported value numerically, then name its unit.

COMPOUND: CCC(C)c1ccc(Nc2nc(-c3ccccc3)nc3ccccc23)cc1 (centres undefined)
inhibition: 10%
--
COMPOUND: COc1ccc(-c2nc(Nc3ccncc3)c3ccccc3n2)cc1
inhibition: 5%
--
COMPOUND: Fc1ccc(-c2nc(Nc3ccncc3)c3ccccc3n2)cc1
inhibition: 92%
--
COMPOUND: Oc1ccc(Nc2nc(-c3ccccc3)nc3ccccc23)cc1
inhibition: 63%

Determine from records and report inhibition for `Fc1ccccc1-c1nc(Nc2ccncc2)c2ccccc2n1` 99%

Determine from records and report inhibition for `N#Cc1cccc(Nc2nc(-c3ccccc3)nc3ccccc23)c1` 13%

Determine from records and report inhibition for `Fc1ccccc1-c1nc(Nc2ccncc2)c2cccnc2n1` 97%

Determine from records and report inhibition for `CN(C)c1ccc(CNc2nc(-c3ccccc3)nc3ccccc23)cc1` 25%

Determine from records and report inhibition for `Clc1ccccc1-c1nc(Nc2ccncc2)c2ccccc2n1` 100%
